System: Escherichia coli
Assay: Bactericidal activity against Escherichia coli ATCC 25922 incubated for 4 hrs followed by culture spread on agar plates and cultured overnight in presence of FeCl3
Assay type: functional
Details: ATCC 25922, 4 h, read-out: MBC>99.9
MEASURED METRIC: MBC (µM)
Give bare numbers, in µM.

Use these answered entries as a reference point.
SUBSTANCE	UNIT NAME	MBC
H-IRPIIRPIIRPIIRPIIRPIIRPIIRPI-NH2	µM	2
H-LRPLLRPLLRPLLRPLLRPLLRPL-NH2	µM	4
H-IKPIIKPIIKPIIKPIIKPIIKPIIKPI-NH2	µM	64
H-LRPLLRPLLRPLLRPLLRPLLRPLLRPL-NH2	µM	2
H-LKPLLKPLLKPLLKPLLKPLLKPL-NH2	µM	4

For each of the substances below, state MBC.
1. H-IRPIIRPIIRPIIRPIIRPIIRPI-NH2
2. H-LKPLLKPLLKPLLKPLLKPLLKPLLKPL-NH2

[8, 2]

* * *

Experiment: Bactericidal activity against Salmonella pullorum C7913 incubated for 4 hrs followed by culture spread on agar plates and cultured overnight
Format: functional, Salmonella enterica subsp. enterica serovar Pullorum
Details: Salmonella enterica, C7913, 4 h; read-out: MBC>99.9
Give MBC for every item shown.

Examples with answers:
SUBSTANCE	MBC
H-LRPLLRPLLRPLLRPLLRPLLRPLLRPLLRPL-NH2	2 µM
H-LRPLLRPLLRPLLRPL-NH2	16 µM
H-VRPVVRPVVRPVVRPVVRPVVRPV-NH2	16 µM
H-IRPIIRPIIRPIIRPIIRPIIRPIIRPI-NH2	4 µM

Go through the list and state MBC for each entry.
1. H-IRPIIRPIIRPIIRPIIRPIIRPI-NH2
2. H-IKPIIKPIIKPIIKPIIKPIIKPIIKPIIKPI-NH2
3. H-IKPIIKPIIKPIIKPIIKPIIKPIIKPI-NH2
4. H-VRPVVRPVVRPVVRPVVRPVVRPVVRPV-NH2
5. H-IRPIIRPIIRPIIRPIIRPIIRPIIRPIIRPI-NH2
6. H-LKPLLKPLLKPLLKPL-NH2
7. H-IKPIIKPIIKPIIKPIIKPIIKPI-NH2

["8 µM", "> 64 µM", "> 64 µM", "8 µM", "4 µM", "64 µM", "> 64 µM"]

State the recorded MBC for every item in the following list.
1. H-LKPLLKPLLKPLLKPLLKPL-NH2
2. H-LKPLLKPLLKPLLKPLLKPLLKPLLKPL-NH2

["8 µM", "4 µM"]

* * *

Give measured MBC for each item. Keep answers brief.
System: Pseudomonas aeruginosa
Assay: Bactericidal activity against Pseudomonas aeruginosa CICC 21625 clinical isolates incubated for 4 hrs followed by culture spread on agar plates and cultured overnight
Assay type: functional
Details: CICC 21625, 4 h, read-out: MBC>99.9

The cases that follow already have their MBC on record.
SUBSTANCE	TARGET SYSTEM	MBC
H-IKPIIKPIIKPIIKPIIKPI-NH2	Pseudomonas aeruginosa	> 64 µM
H-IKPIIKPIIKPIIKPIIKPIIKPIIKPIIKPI-NH2	Pseudomonas aeruginosa	> 64 µM
H-VRPVVRPVVRPVVRPVVRPVVRPVVRPV-NH2	Pseudomonas aeruginosa	> 64 µM

// for each substance in input: emit MBC
1. H-IRPIIRPIIRPIIRPIIRPIIRPIIRPIIRPI-NH2
2. H-VKPVVKPVVKPVVKPVVKPVVKPV-NH2
3. H-VRPVVRPVVRPVVRPVVRPVVRPV-NH2
4. H-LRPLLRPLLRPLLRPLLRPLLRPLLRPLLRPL-NH2

> 64 µM
> 64 µM
> 64 µM
8 µM

Please give MBC for each item listed below.
1. H-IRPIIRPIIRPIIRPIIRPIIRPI-NH2
2. H-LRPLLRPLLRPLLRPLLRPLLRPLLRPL-NH2
3. H-IKPIIKPIIKPIIKPI-NH2
4. H-IRPIIRPIIRPIIRPI-NH2
5. H-VKPVVKPVVKPVVKPVVKPVVKPVVKPV-NH2
6. H-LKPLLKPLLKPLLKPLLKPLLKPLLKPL-NH2
7. H-IRPIIRPIIRPIIRPIIRPI-NH2
8. H-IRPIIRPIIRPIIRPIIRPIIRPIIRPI-NH2

1: > 64 µM; 2: 8 µM; 3: > 64 µM; 4: > 64 µM; 5: > 64 µM; 6: 16 µM; 7: > 64 µM; 8: 64 µM

Record MBC per entry; entries follow.
1. H-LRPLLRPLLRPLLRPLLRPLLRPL-NH2
2. H-IKPIIKPIIKPIIKPIIKPIIKPI-NH2
3. H-LRPLLRPLLRPLLRPL-NH2
4. H-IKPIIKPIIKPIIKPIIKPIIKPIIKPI-NH2
5. H-LRPLLRPLLRPLLRPLLRPL-NH2
6. H-LKPLLKPLLKPLLKPL-NH2
7. H-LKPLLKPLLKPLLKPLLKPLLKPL-NH2
8. H-LKPLLKPLLKPLLKPLLKPLLKPLLKPLLKPL-NH2

1: 32 µM; 2: > 64 µM; 3: > 64 µM; 4: > 64 µM; 5: 32 µM; 6: > 64 µM; 7: 64 µM; 8: 16 µM

Write MBC of H-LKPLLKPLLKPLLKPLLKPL-NH2 ; system used: Pseudomonas aeruginosa
> 64 µM

* * *

Test system: Escherichia coli
Experiment: Bactericidal activity against Escherichia coli K99 incubated for 4 hrs followed by culture spread on agar plates and cultured overnight
Assay type: functional
Conditions: K99, 4 h, read-out: MBC>99.9
MEASURED METRIC: MBC (µM)
Numbers only, in µM.

SUBSTANCE	TARGET SYSTEM	UNIT NAME	MBC
H-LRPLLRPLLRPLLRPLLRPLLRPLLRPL-NH2	Escherichia coli	µM	2
H-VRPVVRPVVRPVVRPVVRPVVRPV-NH2	Escherichia coli	µM	16
H-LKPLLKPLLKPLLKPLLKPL-NH2	Escherichia coli	µM	4
H-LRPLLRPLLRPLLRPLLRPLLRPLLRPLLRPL-NH2	Escherichia coli	µM	2
H-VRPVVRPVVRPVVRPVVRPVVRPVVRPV-NH2	Escherichia coli	µM	32
H-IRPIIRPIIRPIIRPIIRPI-NH2	Escherichia coli	µM	4

Consider the record given below.
Answer with the recorded MBC for the substance listed here: H-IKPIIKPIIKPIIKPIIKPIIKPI-NH2
16

* * *

Assay: Stability of the compound assessed as pepsin (unknown origin)-mediated compound hydrolysis after 8 hrs by SDS-PAGE analysis
Assay type: ADME
Conditions: human
MEASURED METRIC: Stability

SUBSTANCE	MEASURED METRIC	RESULT
H-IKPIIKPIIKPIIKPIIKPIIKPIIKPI-NH2	Stability	Unstable
H-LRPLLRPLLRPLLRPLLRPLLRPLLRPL-NH2	Stability	Unstable
H-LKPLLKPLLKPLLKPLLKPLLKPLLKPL-NH2	Stability	Unstable

* * *

Would you mind telling me the reported MBC of each entry?
Test system: Escherichia coli
Test: Bactericidal activity against Escherichia coli ATCC 25922 incubated for 4 hrs followed by culture spread on agar plates and cultured overnight in presence of 0.25 mg/ml chymotrypsin
Assay type: functional
Details: ATCC 25922, 4 h, read-out: MBC>99.9
One number for each entry, in µM.

SUBSTANCE	UNIT NAME	NUMBER
H-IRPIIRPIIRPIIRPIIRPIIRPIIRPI-NH2	µM	2
H-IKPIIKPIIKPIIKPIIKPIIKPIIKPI-NH2	µM	16
H-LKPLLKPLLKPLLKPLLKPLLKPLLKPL-NH2	µM	1

Next substance, MBC to be filled in.
Give MBC for H-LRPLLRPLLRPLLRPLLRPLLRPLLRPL-NH2
2

* * *

Provide the reported log10 of MBC of each item.
Test system: Escherichia coli
Assay: Bactericidal activity against Escherichia coli UB1005 incubated for 4 hrs followed by culture spread on agar plates and cultured overnight
Format: functional
Conditions: UB1005, 4 h, read-out: MBC>99.9
All values: base-10 log of MBC in µM.

// solved cases for log10 of MBC follow
SUBSTANCE	NUMBER
H-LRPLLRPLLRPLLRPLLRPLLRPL-NH2	0.60
H-LKPLLKPLLKPLLKPL-NH2	1.81
H-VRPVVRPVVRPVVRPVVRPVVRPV-NH2	1.51
H-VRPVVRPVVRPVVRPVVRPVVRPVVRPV-NH2	0.90
H-IRPIIRPIIRPIIRPI-NH2	1.20
H-LRPLLRPLLRPLLRPLLRPL-NH2	0.90

For each entry beneath this line, provide reported log10 of MBC.
1. H-LRPLLRPLLRPLLRPL-NH2
2. H-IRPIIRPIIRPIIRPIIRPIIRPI-NH2
3. H-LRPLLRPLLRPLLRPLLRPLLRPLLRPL-NH2
4. H-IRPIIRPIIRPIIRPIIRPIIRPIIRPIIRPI-NH2
5. H-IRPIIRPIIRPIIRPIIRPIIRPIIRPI-NH2
6. H-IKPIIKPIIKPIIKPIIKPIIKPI-NH2

[1.51, 0.30, 0.30, 0.30, 0.30, 1.51]
